All figures here come from ChEMBL document CHEMBL6078669.

Target: Transient receptor potential cation channel subfamily V member 1 (Homo sapiens, UniProt Q8NER1)
Sequence (Q8NER1 whole entry): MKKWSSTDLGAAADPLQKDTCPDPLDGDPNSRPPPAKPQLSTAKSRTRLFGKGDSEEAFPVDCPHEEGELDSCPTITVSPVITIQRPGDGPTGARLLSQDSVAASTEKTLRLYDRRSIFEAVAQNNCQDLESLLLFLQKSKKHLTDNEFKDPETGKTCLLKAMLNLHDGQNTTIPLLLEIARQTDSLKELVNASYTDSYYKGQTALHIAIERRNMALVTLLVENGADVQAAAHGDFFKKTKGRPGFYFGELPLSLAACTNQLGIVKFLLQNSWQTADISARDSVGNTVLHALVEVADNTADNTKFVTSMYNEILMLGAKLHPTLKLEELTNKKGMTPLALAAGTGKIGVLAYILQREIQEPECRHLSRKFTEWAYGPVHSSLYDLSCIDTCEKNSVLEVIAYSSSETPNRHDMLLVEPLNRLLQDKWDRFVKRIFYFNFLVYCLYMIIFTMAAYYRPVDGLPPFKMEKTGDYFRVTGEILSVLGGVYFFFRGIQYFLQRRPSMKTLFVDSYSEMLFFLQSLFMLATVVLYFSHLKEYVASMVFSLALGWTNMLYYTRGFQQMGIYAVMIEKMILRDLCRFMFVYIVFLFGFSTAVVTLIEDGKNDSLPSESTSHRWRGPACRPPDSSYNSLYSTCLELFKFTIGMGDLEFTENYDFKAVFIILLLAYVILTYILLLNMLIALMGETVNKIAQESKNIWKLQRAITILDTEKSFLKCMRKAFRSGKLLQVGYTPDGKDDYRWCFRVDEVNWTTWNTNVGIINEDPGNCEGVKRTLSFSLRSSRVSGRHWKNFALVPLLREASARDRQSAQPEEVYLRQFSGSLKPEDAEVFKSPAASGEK
Assay: Agonist activity at recombinant human TRPV1 expressed in HEK293 cells assessed as increase in [Ca2+]i level by Fluo-4AM based calcium assay
Format: cell-based
reported-endpoint: EC50 (nM)

chemical-structure | numeric-value
C=C(C)[C@@H]1CCC(C)=C[C@H]1c1c(O)cc(CCCCC)cc1O | 1000

---

Target: Transient receptor potential cation channel subfamily V member 2 (Rattus norvegicus)
Sequence (Q9WUD2 whole entry): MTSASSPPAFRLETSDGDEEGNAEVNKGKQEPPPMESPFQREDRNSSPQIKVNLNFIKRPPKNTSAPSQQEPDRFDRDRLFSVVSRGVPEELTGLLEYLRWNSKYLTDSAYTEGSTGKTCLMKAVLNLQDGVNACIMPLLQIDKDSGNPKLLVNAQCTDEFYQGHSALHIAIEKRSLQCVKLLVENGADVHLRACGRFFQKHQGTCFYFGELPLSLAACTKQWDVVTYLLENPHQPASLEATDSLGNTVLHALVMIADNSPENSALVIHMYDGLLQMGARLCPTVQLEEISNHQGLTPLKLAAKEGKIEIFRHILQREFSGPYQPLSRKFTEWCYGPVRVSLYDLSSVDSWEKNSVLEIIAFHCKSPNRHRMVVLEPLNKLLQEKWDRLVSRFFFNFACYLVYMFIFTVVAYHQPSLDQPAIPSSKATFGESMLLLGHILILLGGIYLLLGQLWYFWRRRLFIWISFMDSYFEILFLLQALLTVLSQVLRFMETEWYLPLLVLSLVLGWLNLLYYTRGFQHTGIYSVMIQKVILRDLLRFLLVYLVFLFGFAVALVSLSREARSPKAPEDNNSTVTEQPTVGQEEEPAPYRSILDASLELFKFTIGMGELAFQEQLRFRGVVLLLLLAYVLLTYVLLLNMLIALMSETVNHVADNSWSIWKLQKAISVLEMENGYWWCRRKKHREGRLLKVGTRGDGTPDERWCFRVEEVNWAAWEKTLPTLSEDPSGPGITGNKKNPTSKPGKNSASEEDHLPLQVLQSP
Assay: Agonist activity at recombinant rat TRPV2 expressed in HEK293 cells assessed as increase in [Ca2+]i by Fluo-4AM based calcium assay

chemical-structure | EC50 (nM)
C=C(C)[C@@H]1CCC(C)=C[C@H]1c1c(O)cc(CCCCC)cc1O | 1250

---

Target: Cannabinoid receptor 2 (Homo sapiens)
Test: Displacement of [3H]CP-55,940 from human CB2 receptor extracted from HEK293 cell membrane assessed as inhibition constant incubated for 90 mins by liquid scintillation spectrophotometric analysis
Assay type: cell membranes
Entries and their Ki values follow.
reported-endpoint: Ki (nM)

compound | reported-endpoint | numeric-value
C=C(C)[C@H]1CCC(C)=C[C@@H]1c1c(O)cc(CCC)c(C(=O)OC)c1O | Ki | 28
C=C(C)C1CCC(C)=CC1O (stereo not drawn) | Ki | 375
C=C(C)[C@@H]1CCC(C)=C[C@H]1c1c(O)cc(CCCCC)c(C(=O)OC)c1O | Ki | 0.8

---

Target: Cannabinoid receptor 1 (Homo sapiens, UniProt P21554)
Sequence (P21554 whole entry): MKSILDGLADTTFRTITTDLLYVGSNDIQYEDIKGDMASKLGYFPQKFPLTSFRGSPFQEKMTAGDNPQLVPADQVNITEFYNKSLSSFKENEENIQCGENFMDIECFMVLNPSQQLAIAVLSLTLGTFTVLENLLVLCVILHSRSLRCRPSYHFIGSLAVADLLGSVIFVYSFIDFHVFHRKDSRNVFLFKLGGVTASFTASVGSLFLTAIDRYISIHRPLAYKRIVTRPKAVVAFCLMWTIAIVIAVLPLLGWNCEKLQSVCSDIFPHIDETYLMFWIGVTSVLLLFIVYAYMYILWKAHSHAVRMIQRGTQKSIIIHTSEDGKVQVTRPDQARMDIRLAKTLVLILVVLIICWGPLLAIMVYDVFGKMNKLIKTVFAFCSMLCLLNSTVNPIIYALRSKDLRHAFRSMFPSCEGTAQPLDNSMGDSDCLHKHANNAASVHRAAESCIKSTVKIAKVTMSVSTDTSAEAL
Assay: Binding affinity to CB1 receptor (unknown origin) assessed as inhibition constant

chemical-structure | measurement-target | Ki
COc1cc(C(C)(C)CCCCCCN=C=S)cc(OC)c1[C@@H]1C=C(CO)[C@@H]2C[C@H]1C2(C)C | Cannabinoid receptor 1 (Homo sapiens, UniProt P21554) | > 1000 nM
CCCCCCC(C)(C)c1cc(OC)c([C@@H]2C=C(CO)[C@@H]3C[C@H]2C3(C)C)c(OC)c1 | Cannabinoid receptor 1 (Homo sapiens, UniProt P21554) | > 1000 nM
C=C(C)[C@H]1CCC(C(=O)O)=C[C@@H]1c1c(O)cc(CCCCC)cc1O | Cannabinoid receptor 1 (Homo sapiens, UniProt P21554) | 13.2 nM
CCCCCCC(C)(C)c1cc(O)c(-c2c(CO)cccc2C(C)C)c(OC)c1 | Cannabinoid receptor 1 (Homo sapiens, UniProt P21554) | > 1000 nM
C=C(C)[C@@H]1CCC(C)=C[C@H]1c1c(O)cc(CCC)cc1O | Cannabinoid receptor 1 (Homo sapiens, UniProt P21554) | > 1000 nM

---

Target: Cannabinoid receptor 2 (Homo sapiens, UniProt P34972)
Sequence (P34972 whole entry): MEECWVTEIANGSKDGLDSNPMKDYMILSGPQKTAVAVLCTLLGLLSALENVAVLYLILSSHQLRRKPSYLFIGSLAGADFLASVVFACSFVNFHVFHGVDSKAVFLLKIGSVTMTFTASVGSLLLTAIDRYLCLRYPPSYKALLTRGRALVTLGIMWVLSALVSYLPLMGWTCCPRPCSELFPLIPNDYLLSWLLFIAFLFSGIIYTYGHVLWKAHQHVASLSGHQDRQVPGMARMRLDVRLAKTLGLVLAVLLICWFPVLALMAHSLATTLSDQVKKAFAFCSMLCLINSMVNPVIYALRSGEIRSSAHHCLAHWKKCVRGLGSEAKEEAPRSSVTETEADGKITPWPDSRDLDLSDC
Experiment: Binding affinity to CB2 receptor (unknown origin) assessed as inhibition constant
pKi: −log10 of the molar value.
Entries and their pKi values follow.
reported-endpoint: pKi

chemical-structure | censoring-sign | numeric-value
C=C(C)[C@H]1CCC(C(=O)O)=C[C@@H]1c1c(O)cc(CCCCC)cc1O | = | 6.50
COc1cc(C(C)(C)CCCCCCN=C=S)cc(OC)c1[C@H]1C=C(CO)[C@H]2C[C@@H]1C2(C)C | = | 7.88
C=C(C)[C@@H]1CCC(C(=O)O)=C[C@H]1c1c(O)cc(C(C)(C)CCCCCC)cc1O | < | 6.00
C=C(C)[C@H]1CCC(C(=O)O)=C[C@@H]1c1c(O)cc(C(C)(C)CCCCCC)cc1O | = | 6.81
COc1cc(C(C)(C)CCCCCCN=C=S)cc(OC)c1[C@@H]1C=C(CO)[C@@H]2C[C@H]1C2(C)C | = | 6.92

---

Assay: Selectivity ratio of Ki for CB1 receptor (unknown origin) to Ki for CB2 receptor (unknown origin)
reported-endpoint: Ratio Ki

chemical-structure | reported-endpoint | numeric-value
C=C(C)[C@H]1CCC(C(=O)O)=C[C@@H]1c1c(O)cc(C(C)(C)CCCCCC)cc1O | Ratio Ki | 0.03
CCCCCCC(C)(C)c1cc(O)c(-c2c(CO)cccc2C(C)C)c(OC)c1 | Ratio Ki | 17
C=C(C)[C@H]1CCC(C(=O)O)=C[C@@H]1c1c(O)cc(CCCCC)cc1O | Ratio Ki | 0.04
COc1cc(C(C)(C)CCCCCCN=C=S)cc(OC)c1[C@H]1C=C(CO)[C@H]2C[C@@H]1C2(C)C | Ratio Ki | 203

---

Target: UniProtKB Q8R455
Sequence (Q8R455 whole entry): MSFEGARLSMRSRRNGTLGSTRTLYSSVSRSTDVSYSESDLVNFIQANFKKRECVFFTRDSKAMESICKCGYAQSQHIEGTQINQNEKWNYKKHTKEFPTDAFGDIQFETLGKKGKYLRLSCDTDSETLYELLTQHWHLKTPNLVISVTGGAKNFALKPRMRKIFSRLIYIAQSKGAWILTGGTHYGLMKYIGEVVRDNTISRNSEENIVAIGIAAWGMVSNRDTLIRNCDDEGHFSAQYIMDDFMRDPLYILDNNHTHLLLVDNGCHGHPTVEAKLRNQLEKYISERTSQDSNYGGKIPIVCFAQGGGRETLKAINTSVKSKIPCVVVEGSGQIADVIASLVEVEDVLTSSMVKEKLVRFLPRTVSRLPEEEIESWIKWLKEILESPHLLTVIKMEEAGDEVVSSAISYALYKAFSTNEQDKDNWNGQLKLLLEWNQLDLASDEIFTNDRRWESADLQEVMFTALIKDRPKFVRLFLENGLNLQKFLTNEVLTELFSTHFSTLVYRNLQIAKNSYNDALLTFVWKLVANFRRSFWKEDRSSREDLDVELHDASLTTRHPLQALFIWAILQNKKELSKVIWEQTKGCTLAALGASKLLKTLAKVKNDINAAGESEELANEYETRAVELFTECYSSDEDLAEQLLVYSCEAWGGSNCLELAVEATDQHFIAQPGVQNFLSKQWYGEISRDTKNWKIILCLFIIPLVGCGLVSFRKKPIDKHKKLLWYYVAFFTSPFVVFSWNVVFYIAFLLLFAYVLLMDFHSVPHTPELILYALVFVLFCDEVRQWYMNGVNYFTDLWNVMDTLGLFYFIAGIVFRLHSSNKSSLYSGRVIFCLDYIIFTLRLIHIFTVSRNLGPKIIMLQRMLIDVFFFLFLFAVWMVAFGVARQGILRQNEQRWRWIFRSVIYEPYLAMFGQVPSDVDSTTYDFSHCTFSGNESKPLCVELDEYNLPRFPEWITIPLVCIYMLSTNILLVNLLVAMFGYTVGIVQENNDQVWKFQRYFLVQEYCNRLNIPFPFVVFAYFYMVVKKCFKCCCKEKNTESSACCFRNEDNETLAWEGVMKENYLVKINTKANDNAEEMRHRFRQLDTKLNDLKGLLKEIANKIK
Test: Antagonist activity at recombinant rat TRPM8 expressed in HEK293 cells assessed as inhibition of icillin-induced intracellular calcium level preincubated with compound for 5 mins followed by icillin addition by Fluo-4AM based calcium assay
reported-endpoint: IC50 (µM)

chemical-structure | numeric-value
C=C(C)[C@@H]1CCC(C)=C[C@H]1c1c(O)cc(CCCCC)cc1O | 0.06

---

Target: Equilibrative nucleoside transporter 1 (Homo sapiens)
Sequence (Q99808 whole entry): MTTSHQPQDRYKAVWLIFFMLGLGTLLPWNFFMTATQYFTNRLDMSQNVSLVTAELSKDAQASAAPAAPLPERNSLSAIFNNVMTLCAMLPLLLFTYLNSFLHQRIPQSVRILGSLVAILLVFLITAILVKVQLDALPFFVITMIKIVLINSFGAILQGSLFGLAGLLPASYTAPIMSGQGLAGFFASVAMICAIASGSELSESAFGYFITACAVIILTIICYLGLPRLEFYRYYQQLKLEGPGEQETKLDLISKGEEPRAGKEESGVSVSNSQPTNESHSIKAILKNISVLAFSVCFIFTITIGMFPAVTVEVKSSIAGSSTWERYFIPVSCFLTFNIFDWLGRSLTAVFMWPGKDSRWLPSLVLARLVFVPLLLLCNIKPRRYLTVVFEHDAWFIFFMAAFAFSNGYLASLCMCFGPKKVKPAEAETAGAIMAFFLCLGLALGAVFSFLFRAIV
reported-endpoint: Ki (nM)

molecule | unit-of-measurement | numeric-value
C=C(C)[C@@H]1CCC(C)=C[C@H]1c1c(O)cc(CCCCC)cc1O [CANNABIDIOL] | nM | 250

---

Molecular target: Cannabinoid receptor 1 (Homo sapiens)
Experiment: Displacement of [3H]CP-55,940 from human CB1 receptor extracted from HEK293 cell membrane assessed as inhibition constant incubated for 90 mins by liquid scintillation spectrophotometric analysis
Format: cell membranes
pKi: −log10 of the molar value.

compound | censoring-sign | pKi
C=C(C)C1CCC(C)=CC1O (centres undefined) | < | 6.00
C=C(C)[C@@H]1CCC(C)=C[C@H]1c1c(O)cc(CCCCC)c(C(=O)OC)c1O | = | 8.51
C=C(C)[C@H]1CCC(C)=C[C@@H]1c1c(O)cc(CCC)c(C(=O)OC)c1O | = | 6.46
C=C(C)[C@H]1CCC(C)=C[C@@H]1c1c(O)cc(CCCCC)c(C(=O)OCCO)c1O | = | 6.59

---

Molecular target: Cannabinoid receptor 1 (Homo sapiens)
Experiment: Antagonist activity at human CB1 receptor expressed in HEK293T cells co-transfected with pCRE-Luc plasmid preincubated with compound for 30 mins followed by WIN55,212 addition and measured after 6 hrs by Dual-luciferase assay
reported-endpoint: IC50 (nM)

compound | reported-endpoint | numeric-value
C=C(C)[C@H]1CCC(C)=C[C@@H]1c1c(O)cc(CCCCC)c(C(=O)OCC(O)CCC)c1O (stereo partly specified) | IC50 | 210

---

Target: Cannabinoid receptor 1 (Homo sapiens, UniProt P21554)
Experiment: Binding affinity to CB1 receptor (unknown origin) assessed as inhibition constant
Entries and their Ki values follow.

chemical-structure | unit-of-measurement | censoring-sign | Ki
C=C(C)[C@H]1CCC(C(=O)O)=C[C@@H]1c1c(O)cc(C(C)(C)CCCCCC)cc1O | µM | = | 0.0058
C=C(C)[C@@H]1CCC(C(=O)O)=C[C@H]1c1c(O)cc(C(C)(C)CCCCCC)cc1O | µM | > | 1
COc1cc(C(C)(C)CCCCCCN=C=S)cc(OC)c1[C@H]1C=C(CO)[C@H]2C[C@@H]1C2(C)C | µM | = | 2.67

---

Target: D(2) dopamine receptor (Homo sapiens, UniProt P14416)
Sequence (P14416 whole entry): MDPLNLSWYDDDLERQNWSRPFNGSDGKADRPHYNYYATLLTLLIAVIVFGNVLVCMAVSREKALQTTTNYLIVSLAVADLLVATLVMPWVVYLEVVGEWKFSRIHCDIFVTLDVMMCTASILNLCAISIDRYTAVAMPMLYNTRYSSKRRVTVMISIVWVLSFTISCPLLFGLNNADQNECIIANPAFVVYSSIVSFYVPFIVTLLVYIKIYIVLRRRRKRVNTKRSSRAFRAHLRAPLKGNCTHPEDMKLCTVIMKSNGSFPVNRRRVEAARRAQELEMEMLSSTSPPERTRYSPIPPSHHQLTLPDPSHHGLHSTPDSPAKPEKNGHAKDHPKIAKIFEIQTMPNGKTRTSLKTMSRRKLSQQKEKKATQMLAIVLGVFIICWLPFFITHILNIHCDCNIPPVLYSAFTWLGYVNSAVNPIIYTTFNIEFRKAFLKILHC
Assay: Partial agonist activity at D2-low receptor (unknown origin)
reported-endpoint: Ki

chemical-structure | reported-endpoint | result
C=C(C)[C@@H]1CCC(C)=C[C@H]1c1c(O)cc(CCCCC)cc1O | Ki | 2800 nM

---

Molecular target: G-protein coupled receptor 55 (Homo sapiens, UniProt Q9Y2T6)
Sequence (Q9Y2T6 whole entry): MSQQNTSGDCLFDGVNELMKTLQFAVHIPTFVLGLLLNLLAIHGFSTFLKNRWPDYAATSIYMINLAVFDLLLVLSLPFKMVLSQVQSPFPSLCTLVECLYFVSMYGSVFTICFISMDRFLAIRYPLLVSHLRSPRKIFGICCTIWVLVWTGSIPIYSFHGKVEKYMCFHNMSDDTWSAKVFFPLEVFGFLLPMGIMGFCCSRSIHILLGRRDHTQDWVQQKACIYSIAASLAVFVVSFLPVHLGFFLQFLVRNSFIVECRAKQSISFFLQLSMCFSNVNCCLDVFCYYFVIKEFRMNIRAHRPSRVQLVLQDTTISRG

compound | IC50, nM
C=C(C)[C@@H]1CCC(C)=C[C@H]1c1c(O)cc(CCCCC)cc1O [CANNABIDIOL] | 445

---

Biological target: UniProt:P08908
Assay: Agonist activity at 5-HT1A (unknown origin)
reported-endpoint: EC50 (µM)

chemical-structure | reported-endpoint | unit-of-measurement | numeric-value
C=C(C)[C@@H]1CCC(C)=C[C@H]1c1c(O)cc(CCCCC)cc1O | EC50 | µM | 16

---

Molecular target: Fatty-acid amide hydrolase 1 (Mus musculus)
Sequence (O08914 whole entry): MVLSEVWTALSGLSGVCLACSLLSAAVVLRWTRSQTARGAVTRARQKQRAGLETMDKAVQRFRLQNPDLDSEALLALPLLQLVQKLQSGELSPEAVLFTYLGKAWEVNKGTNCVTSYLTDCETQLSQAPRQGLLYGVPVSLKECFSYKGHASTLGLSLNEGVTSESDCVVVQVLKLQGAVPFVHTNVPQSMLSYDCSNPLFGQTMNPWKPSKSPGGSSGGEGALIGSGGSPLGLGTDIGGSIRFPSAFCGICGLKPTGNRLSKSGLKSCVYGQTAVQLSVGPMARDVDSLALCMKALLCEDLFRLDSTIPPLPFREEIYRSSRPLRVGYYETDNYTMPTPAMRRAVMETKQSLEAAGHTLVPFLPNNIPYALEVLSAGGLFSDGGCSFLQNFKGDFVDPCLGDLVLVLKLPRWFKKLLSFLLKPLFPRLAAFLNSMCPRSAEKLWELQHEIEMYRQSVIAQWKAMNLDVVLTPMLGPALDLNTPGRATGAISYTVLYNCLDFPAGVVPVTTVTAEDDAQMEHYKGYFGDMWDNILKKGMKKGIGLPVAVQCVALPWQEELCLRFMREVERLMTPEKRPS
Test: Inhibition of FAAH-mediated [14C]-AEA hydrolysis in mouse N18TG2 cell membrane incubated for 30 mins by scintillation counting
pIC50: −log10 of the molar value.
Entries and their pIC50 values follow.
reported-endpoint: pIC50

compound | reported-endpoint | numeric-value
C=C(C)[C@@H]1CCC(C)=C[C@H]1c1c(O)cc(CCCCC)cc1O [CANNABIDIOL] | pIC50 | 4.56
C=C(C)[C@H]1CCC(C)=C[C@@H]1c1c(O)cc(CCCCC)cc1O | pIC50 | 4.20
